For each record, write down the corresponding IC50.
- assayed system: human TLR8 (Homo sapiens (Human))
- Sequence (Q9NR97 27-1041): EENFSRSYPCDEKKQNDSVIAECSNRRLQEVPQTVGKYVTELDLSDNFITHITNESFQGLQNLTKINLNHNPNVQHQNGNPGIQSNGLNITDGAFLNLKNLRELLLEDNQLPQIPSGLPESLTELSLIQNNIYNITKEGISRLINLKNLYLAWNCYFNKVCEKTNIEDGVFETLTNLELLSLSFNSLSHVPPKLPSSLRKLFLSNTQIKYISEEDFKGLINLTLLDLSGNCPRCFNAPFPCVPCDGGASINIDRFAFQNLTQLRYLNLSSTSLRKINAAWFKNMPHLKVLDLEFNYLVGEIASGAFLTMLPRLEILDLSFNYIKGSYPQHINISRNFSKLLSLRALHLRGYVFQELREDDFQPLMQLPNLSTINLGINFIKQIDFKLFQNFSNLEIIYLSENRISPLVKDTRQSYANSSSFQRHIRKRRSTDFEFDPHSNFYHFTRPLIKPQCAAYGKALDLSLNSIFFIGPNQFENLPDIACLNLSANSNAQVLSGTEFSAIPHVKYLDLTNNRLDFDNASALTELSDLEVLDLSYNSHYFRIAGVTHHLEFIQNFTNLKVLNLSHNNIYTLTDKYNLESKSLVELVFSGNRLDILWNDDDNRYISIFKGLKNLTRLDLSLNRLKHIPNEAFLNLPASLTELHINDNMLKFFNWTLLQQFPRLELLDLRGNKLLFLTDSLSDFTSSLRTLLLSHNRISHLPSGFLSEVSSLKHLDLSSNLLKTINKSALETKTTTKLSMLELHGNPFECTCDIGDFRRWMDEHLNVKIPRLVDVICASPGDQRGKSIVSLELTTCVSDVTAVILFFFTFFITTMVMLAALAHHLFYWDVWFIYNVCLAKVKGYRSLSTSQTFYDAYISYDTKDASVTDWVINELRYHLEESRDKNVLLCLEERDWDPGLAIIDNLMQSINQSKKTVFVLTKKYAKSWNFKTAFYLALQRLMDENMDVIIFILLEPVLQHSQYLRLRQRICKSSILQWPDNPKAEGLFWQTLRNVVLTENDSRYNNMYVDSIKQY
- measurement protocol: TLR8 inhibition reporter assay (HEK-Blue cells, SEAP reporter, R848 stimulation);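 further: SEAP under an IFN-β minimal promoter carrying five NF-κB and AP-1 sites, 22 h at 37 °C, doses 0.05 nM–50 µM, inhibition scaled between agonist-plus-DMSO and reference-inhibitor wells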
- protocol conditions: read-out: TLR8 IC50; HEK-Blue cells overexpressing human TLR8, SEAP reporter, R848 15.9 μM
Numbers only, in nM.

The cases that follow already have their IC50 on record.
| compound | assayed system | IC50 [nM] |
| --- | --- | --- |
| Cc1c(-c2[nH]c3ccc(N4C[C@H]5C[C@@H]4CN5CCCS(C)(=O)=O)nc3c2C(C)C)cn2ncnc2c1C [Example 765] | human TLR8 (Homo sapiens (Human)) | 3.5 |
| Cc1c(-c2[nH]c3ccc(N4C[C@H]5CCC[C@@H](C4)N5CCS(C)(=O)=O)nc3c2C(C)C)cn2ncnc2c1C [Example 751] | human TLR8 (Homo sapiens (Human)) | 7.3 |

Turning to the following compound.
(Q) What value of IC50 has been recorded for this entry: Cc1c(-c2[nH]c3ccc(N4C[C@H]5C[C@@H]4CN5CC#N)nc3c2C(C)C)cn2ncnc2c1C [Example 766]
(A) 1.2

* * *

- assayed system: UniProt:Q9NR96
- Sequence (Q9NR96 26-1032): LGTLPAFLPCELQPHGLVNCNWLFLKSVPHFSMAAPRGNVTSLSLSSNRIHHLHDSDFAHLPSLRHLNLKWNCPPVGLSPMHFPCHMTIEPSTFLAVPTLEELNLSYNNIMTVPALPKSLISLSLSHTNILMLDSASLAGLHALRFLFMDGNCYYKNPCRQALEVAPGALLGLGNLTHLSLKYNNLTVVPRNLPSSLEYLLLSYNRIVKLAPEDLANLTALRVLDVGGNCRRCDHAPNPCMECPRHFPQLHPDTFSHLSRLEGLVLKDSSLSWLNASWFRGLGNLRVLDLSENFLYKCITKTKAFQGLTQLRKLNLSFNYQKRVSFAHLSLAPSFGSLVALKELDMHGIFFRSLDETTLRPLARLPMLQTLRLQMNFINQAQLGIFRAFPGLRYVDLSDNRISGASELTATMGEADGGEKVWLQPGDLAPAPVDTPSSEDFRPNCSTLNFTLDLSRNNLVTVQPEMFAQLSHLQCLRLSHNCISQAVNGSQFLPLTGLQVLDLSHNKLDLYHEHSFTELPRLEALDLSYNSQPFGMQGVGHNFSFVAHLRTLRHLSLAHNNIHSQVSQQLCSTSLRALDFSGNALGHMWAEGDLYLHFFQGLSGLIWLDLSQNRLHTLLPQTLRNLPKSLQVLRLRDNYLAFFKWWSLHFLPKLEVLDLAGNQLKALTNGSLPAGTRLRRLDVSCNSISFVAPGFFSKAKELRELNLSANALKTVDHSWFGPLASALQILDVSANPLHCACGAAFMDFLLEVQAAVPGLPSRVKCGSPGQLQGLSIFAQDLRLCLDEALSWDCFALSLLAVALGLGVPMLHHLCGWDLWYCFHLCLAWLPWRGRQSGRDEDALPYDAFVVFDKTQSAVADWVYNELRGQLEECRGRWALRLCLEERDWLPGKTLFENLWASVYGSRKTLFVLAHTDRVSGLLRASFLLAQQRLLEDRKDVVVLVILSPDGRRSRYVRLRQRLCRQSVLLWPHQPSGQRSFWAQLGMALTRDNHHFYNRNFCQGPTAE
- measurement protocol: TLR9 inhibition reporter assay (HEK-Blue cells, SEAP reporter, ODN2006 stimulation);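 further: SEAP driven by IFN-β minimal promoter with five NF-κB and AP-1 sites, compounds 0.05 nM–50 µM in DMSO, 22 h, inhibition scaled between agonist plus DMSO and reference inhibitor wells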
- protocol conditions: read-out: TLR9 IC50; HEK-Blue cells overexpressing human TLR9, SEAP reporter, ODN2006 5 nM
readout: IC50
The number alone won't do; follow it with the unit.

| molecule | IC50 |
| --- | --- |
| Cc1c(-c2[nH]c3ccc(N4C[C@@H]5C[C@H]4CN5CCC(N)=O)nc3c2C(C)C)cn2ncnc2c1C | 8.45 µM |

Here are 3 molecules. What values of IC50 were reported for them?
1. CC(C)c1c(-c2cn(CCS(C)(=O)=O)c3ncccc23)[nH]c2ccc(C3CCC(NC4CCOCC4)CC3)nc12 (stereo not shown)
2. Cc1c(-c2[nH]c3ccc(N4C[C@@H]5C[C@H]4CN5Cc4cn(C)nn4)nc3c2C(C)C)cn2ncnc2c1C
3. Cc1c(-c2[nH]c3ccc(N4C[C@@H]5C[C@H]4CN5C(=O)CCN(C)C)nc3c2C(C)C)cn2ncnc2c1C

(A)
1: 0.228 µM; 2: 12.3 µM; 3: 4.68 µM

* * *

For each record, write down the corresponding pIC50.
- assayed system: human TLR7 (Homo sapiens (Human))
- Sequence (Q9NYK1 27-1049): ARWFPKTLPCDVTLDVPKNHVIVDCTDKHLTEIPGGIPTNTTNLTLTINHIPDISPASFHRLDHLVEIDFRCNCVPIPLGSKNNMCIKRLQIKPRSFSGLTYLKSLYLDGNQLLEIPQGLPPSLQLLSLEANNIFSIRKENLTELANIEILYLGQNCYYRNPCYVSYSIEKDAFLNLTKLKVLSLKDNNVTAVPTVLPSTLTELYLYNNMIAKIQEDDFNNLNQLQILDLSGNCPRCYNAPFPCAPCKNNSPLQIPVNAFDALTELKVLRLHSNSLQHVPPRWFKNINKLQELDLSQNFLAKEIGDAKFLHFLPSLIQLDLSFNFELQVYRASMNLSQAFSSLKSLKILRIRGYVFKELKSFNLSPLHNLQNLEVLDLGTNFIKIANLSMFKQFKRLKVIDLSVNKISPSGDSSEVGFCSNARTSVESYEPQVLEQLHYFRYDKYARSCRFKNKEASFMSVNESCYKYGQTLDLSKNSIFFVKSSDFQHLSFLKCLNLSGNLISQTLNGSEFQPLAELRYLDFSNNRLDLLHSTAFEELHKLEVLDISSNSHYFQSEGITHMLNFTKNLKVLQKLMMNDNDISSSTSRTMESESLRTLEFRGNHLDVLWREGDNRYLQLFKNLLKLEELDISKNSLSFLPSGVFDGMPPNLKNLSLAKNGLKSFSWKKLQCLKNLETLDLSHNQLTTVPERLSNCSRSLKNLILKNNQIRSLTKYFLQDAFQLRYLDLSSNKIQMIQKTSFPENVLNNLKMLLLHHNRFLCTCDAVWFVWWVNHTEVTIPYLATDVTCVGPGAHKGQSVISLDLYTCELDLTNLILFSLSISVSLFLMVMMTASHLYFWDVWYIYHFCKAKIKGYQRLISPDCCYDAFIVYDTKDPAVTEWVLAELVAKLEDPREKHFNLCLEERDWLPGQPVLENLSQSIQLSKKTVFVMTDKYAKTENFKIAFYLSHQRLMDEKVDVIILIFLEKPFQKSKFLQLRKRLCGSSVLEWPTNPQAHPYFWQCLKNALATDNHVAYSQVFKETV
- measurement protocol: TLR7 inhibition reporter assay (HEK-Blue cells, SEAP reporter, gardiquimod stimulation)
- Format: cell-based
- protocol conditions: HEK-Blue cells overexpressing human TLR7, SEAP reporter, gardiquimod 7.5 μM
Numbers only, as −log10 of the molar value.

| chemical smiles | readout | measured value |
| --- | --- | --- |
| Cc1c(-c2[nH]c3ccc(N4C[C@@H]5C[C@H]4CN5C4COC4)nc3c2C(C)C)cn2ncnc2c1C | pIC50 | 8.14 |
| Cc1c(-c2[nH]c3ccc(N4C[C@H]5C[C@@H]4CN5C(C)C)nc3c2C(C)C)cn2ncnc2c1C | pIC50 | 8.11 |
| Cc1c(-c2[nH]c3ccc(N4C[C@H]5C[C@@H]4CN5CCC(=O)N(C)C)nc3c2C(C)C)cn2ncnc2c1C | pIC50 | 8.27 |

Here are 4 compounds. What values of pIC50 were reported for them?
1. Cc1c(-c2[nH]c3ccc(N4C[C@H]5C[C@@H]4CN5CCC(N)=O)nc3c2C(C)C)cn2ncnc2c1C
2. Cc1c(-c2[nH]c3ccc(N4C[C@@H]5C[C@H]4CN5CCC(N)=O)nc3c2C(C)C)cn2ncnc2c1C
3. Cc1c(-c2[nH]c3ccc(N4C[C@@H]5C[C@H]4CN5CCS(C)(=O)=O)nc3c2C(C)C)cn2ncnc2c1C
4. Cc1c(-c2[nH]c3ccc(N4C[C@@H]5C[C@H]4CN5C(=O)CCN(C)C)nc3c2C(C)C)cn2ncnc2c1C

(A)
8.42
8.42
8.04
8.10
